- ASSAY PROTOCOL: Drug distribution in Sprague-Dawley rat heart at 1 mg/kg, iv measured after 0.5 hrs by LC-MS/MS analysis
- Assay type: ADME, organism-based
- ASSAY CONDITIONS: read-out: Drug uptake
ASSAY ENDPOINT: concentration at 0.5 h (ng/g)
Express it in ng/g; write the number only.

## Input Recorded concentration at 0.5 h for COc1ccc(NS(=O)(=O)c2ccc(N3CCN(Cc4cccc([N+](=O)[O-])c4)CC3)c([N+](=O)[O-])c2)cn1 , please?
## Output 52.1

* * *

- ASSAY PROTOCOL: Drug distribution in Sprague-Dawley rat kidney at 10 mg/kg, po measured after 3 hrs by LC-MS/MS analysis
- Assay type: ADME, organism-based
- ASSAY CONDITIONS: read-out: Drug uptake
ASSAY ENDPOINT: concentration at 3 h (ng/g)
Express it in ng/g; write the number only.

## Input Recorded concentration at 3 h for COc1ccc(NS(=O)(=O)c2ccc(N3CCN(Cc4cccc([N+](=O)[O-])c4)CC3)c([N+](=O)[O-])c2)cn1 , please?
## Output 3.31

* * *

- ASSAY PROTOCOL: Drug distribution in Sprague-Dawley rat liver at 1 mg/kg, iv measured after 4 hrs by LC-MS/MS analysis
- Type: ADME, organism-based
- ASSAY CONDITIONS: read-out: Drug uptake
ASSAY ENDPOINT: concentration at 4 h

## Input Recorded concentration at 4 h for COc1ccc(NS(=O)(=O)c2ccc(N3CCN(Cc4cccc([N+](=O)[O-])c4)CC3)c([N+](=O)[O-])c2)cn1 , please?
## Output 137 ng/g

* * *

- Test system: J774.A1
- ASSAY PROTOCOL: Anti-inflammatory activity in mouse J774.A1 cells assessed as inhibition of LPS-induced IL-6 production at 10 uM pre-stimulated with LPS for 24 hrs followed by compound addition and measured after 0.5 hrs by ELISA analysis relative to control
- Type: functional
Active and inactive are the calls of the source. The calls are words filed in the database; no cut-off is given here.
ASSAY ENDPOINT: inhibition

Sample answers from the record:
COCCN1CCN(Cc2ccc(-c3cc(-c4ccccc4)[nH]c(=O)n3)cc2)CC1 inactive
CC(=O)N1CCN(Cc2ccc(-c3cc(-c4ccc(Br)cc4)[nH]c(=O)n3)cc2)CC1 inactive
O=C(Nc1ccccc1)c1ccc(N2CCN(Cc3cccc([N+](=O)[O-])c3)CC2)c([N+](=O)[O-])c1 inactive
O=c1[nH]c(-c2ccccc2)nc2cc(CN3CCN(c4ccc([N+](=O)[O-])cc4)CC3)ccc12 inactive

From here, focus on the item given below.
## Input Test system J774.A1; read-out inhibition; what value for O=C(Nc1ccccc1)c1ccc(N2CCN(Cc3ccc([N+](=O)[O-])cc3)CC2)c([N+](=O)[O-])c1 ?
## Output inactive

* * *

- ASSAY PROTOCOL: Drug distribution in Sprague-Dawley rat brain at 1 mg/kg, iv measured after 4 hrs by LC-MS/MS analysis
- Format: ADME, organism-based
- ASSAY CONDITIONS: read-out: Drug uptake
ASSAY ENDPOINT: concentration at 4 h (ng/g)
Express it in ng/g; write the number only.

## Input Recorded concentration at 4 h for COc1ccc(NS(=O)(=O)c2ccc(N3CCN(Cc4cccc([N+](=O)[O-])c4)CC3)c([N+](=O)[O-])c2)cn1 , please?
## Output 7.99

* * *

- ASSAY PROTOCOL: Drug distribution in Sprague-Dawley rat liver at 1 mg/kg, iv measured after 0.5 hrs by LC-MS/MS analysis
- Format: ADME, organism-based
- ASSAY CONDITIONS: read-out: Drug uptake
ASSAY ENDPOINT: concentration at 0.5 h
# output: numeric value plus its unit

## Input Recorded concentration at 0.5 h for COc1ccc(NS(=O)(=O)c2ccc(N3CCN(Cc4cccc([N+](=O)[O-])c4)CC3)c([N+](=O)[O-])c2)cn1 , please?
## Output 166 ng/g

* * *

- ASSAY PROTOCOL: Half-life in Sprague-Dawley rat at 1 mg/kg, iv measured at 5 to 1440 min by LC-MS/MS analysis
- Assay type: ADME, organism-based
- ASSAY CONDITIONS: in vivo, time 5-1440 min
ASSAY ENDPOINT: half-life (h)
Express it in h; write the number only.

## Input Recorded half-life for COc1ccc(NS(=O)(=O)c2ccc(N3CCN(Cc4cccc([N+](=O)[O-])c4)CC3)c([N+](=O)[O-])c2)cn1 , please?
## Output 1.1

* * *

- ASSAY PROTOCOL: Drug distribution in Sprague-Dawley rat heart at 1 mg/kg, iv measured after 4 hrs by LC-MS/MS analysis
- Type: ADME, organism-based
- ASSAY CONDITIONS: read-out: Drug uptake
ASSAY ENDPOINT: concentration at 4 h
# output: numeric value plus its unit

## Input Recorded concentration at 4 h for COc1ccc(NS(=O)(=O)c2ccc(N3CCN(Cc4cccc([N+](=O)[O-])c4)CC3)c([N+](=O)[O-])c2)cn1 , please?
## Output 275 ng/g

* * *

- ASSAY PROTOCOL: Drug distribution in Sprague-Dawley rat kidney at 1 mg/kg, iv measured after 0.5 hrs by LC-MS/MS analysis
- Type: ADME, organism-based
- ASSAY CONDITIONS: read-out: Drug uptake
ASSAY ENDPOINT: concentration at 0.5 h (ng/g)
Express it in ng/g; write the number only.

## Input Recorded concentration at 0.5 h for COc1ccc(NS(=O)(=O)c2ccc(N3CCN(Cc4cccc([N+](=O)[O-])c4)CC3)c([N+](=O)[O-])c2)cn1 , please?
## Output 52.5

* * *

- Test system: J774.A1
- ASSAY PROTOCOL: Anti-inflammatory activity in mouse J774.A1 cells assessed as inhibition of LPS-induced TNF-alpha production at 10 uM pre-stimulated with LPS for 24 hrs followed by compound addition and measured after 0.5 hrs by ELISA analysis relative to control
- Format: functional
Task for the reader: assign each of the following compounds its reported inhibition at 10 µM.
Express it in %; write the number only.

## Input Test system J774.A1; read-out inhibition at 10 µM; what value for COc1ccc(-c2cc(-c3ccc(CN4CCN(CCO)CC4)cc3)nc(=O)[nH]2)cc1 ?
## Output 33.7

## Input Test system J774.A1; read-out inhibition at 10 µM; what value for O=[N+]([O-])c1cccc(CN2CCN(c3ccc(S(=O)(=O)Nc4ccccc4)cc3[N+](=O)[O-])CC2)c1 ?
## Output 33.9

## Input Test system J774.A1; read-out inhibition at 10 µM; what value for COCCN1CCN(c2ccc(S(=O)(=O)Nc3ccc(OC)nc3)cc2[N+](=O)[O-])CC1 ?
## Output 1.16

## Input Test system J774.A1; read-out inhibition at 10 µM; what value for O=c1cc(-c2ccncc2)nc(-c2ccc(CN3CCN(CCO)CC3)cc2)[nH]1 ?
## Output 8.59

## Input Test system J774.A1; read-out inhibition at 10 µM; what value for COCCN1CCN(c2ccc(S(=O)(=O)NCc3ccccn3)cc2[N+](=O)[O-])CC1 ?
## Output 11.8

## Input Test system J774.A1; read-out inhibition at 10 µM; what value for COc1ccc(NS(=O)(=O)c2ccc(N3CCN(Cc4cccc([N+](=O)[O-])c4)CC3)c([N+](=O)[O-])c2)cn1 ?
## Output 36.7

## Input Test system J774.A1; read-out inhibition at 10 µM; what value for O=c1nc(-c2ccc(CN3CCN(CCO)CC3)cc2)cc(-c2ccc(Br)cc2)[nH]1 ?
## Output 29.6

## Input Test system J774.A1; read-out inhibition at 10 µM; what value for O=C(NCc1ccccn1)c1ccc(N2CCN(Cc3ccc([N+](=O)[O-])cc3)CC2)c([N+](=O)[O-])c1 ?
## Output 37

## Input Test system J774.A1; read-out inhibition at 10 µM; what value for COc1ccc(-c2cc(-c3ccc(CN4CCN(CCOCCO)CC4)cc3)nc(=O)[nH]2)cc1 ?
## Output 27.2

## Input Test system J774.A1; read-out inhibition at 10 µM; what value for COc1ccc(NS(=O)(=O)c2ccc(N3CCN(Cc4ccc([N+](=O)[O-])cc4)CC3)c([N+](=O)[O-])c2)cn1 ?
## Output 37.9

## Input Test system J774.A1; read-out inhibition at 10 µM; what value for CCCCCNCc1ccc(-c2cc(-c3ccccc3)[nH]c(=O)n2)cc1 ?
## Output 16.1

## Input Test system J774.A1; read-out inhibition at 10 µM; what value for COc1ccc(NS(=O)(=O)c2ccc(N3CCN(c4cnc(NC(C)=O)s4)CC3)c([N+](=O)[O-])c2)cn1 ?
## Output 12.2

## Input Test system J774.A1; read-out inhibition at 10 µM; what value for COCCN1CCN(c2ccc(C(=O)Nc3ccccc3)cc2[N+](=O)[O-])CC1 ?
## Output 26.9

## Input Test system J774.A1; read-out inhibition at 10 µM; what value for O=c1nc(-c2ccc(CN3CCN(CCO)CC3)cc2)cc(-c2ccccc2)[nH]1 ?
## Output 17.9

## Input Test system J774.A1; read-out inhibition at 10 µM; what value for O=[N+]([O-])c1cc(S(=O)(=O)Nc2ccccc2)ccc1N1CCN(CCO)CC1 ?
## Output 7.89

## Input Test system J774.A1; read-out inhibition at 10 µM; what value for CCCCCNCc1ccc(-c2cc(-c3ccc(OC)cc3)[nH]c(=O)n2)cc1 ?
## Output 24.1

## Input Test system J774.A1; read-out inhibition at 10 µM; what value for COc1ccc(CN2CCN(c3ccc(S(=O)(=O)Nc4ccc(OC)nc4)cc3[N+](=O)[O-])CC2)cc1 ?
## Output 27.9

Entry source: ChEMBL document CHEMBL5338758
